Target: T1, human C5 R885C-mmh (human, UniProt P01031 19-1676)
T1 construct: also called human C5 variant R885C
Experiment: SPR, mAb captured via anti-hFc, 37C
Procedure: Equilibrium dissociation constants (KD values) for C5 binding to purified anti-C5 antibodies were determined using a real-time surface plasmon resonance biosensor assay on a Biacore T200 instrument. […] Human C5 was obtained from a commercial source (EMD). […] Association of all the C5 reagents to each of the captured monoclonal antibodies was monitored for 3 minutes and their dissociation in HBST running buffer was monitored for 8 minutes. […]
Rule: measured Kd below 3 nM gets y; anything equal to or greater than 3 nM gets n.

* H4H12164P (antibody, human IgG4, V domains shown, Human IgG4 Fc with S108P hinge mutation (H4H)) VH: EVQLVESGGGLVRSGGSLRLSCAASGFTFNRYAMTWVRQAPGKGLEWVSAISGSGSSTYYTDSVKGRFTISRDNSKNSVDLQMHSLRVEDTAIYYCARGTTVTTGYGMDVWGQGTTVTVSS VL: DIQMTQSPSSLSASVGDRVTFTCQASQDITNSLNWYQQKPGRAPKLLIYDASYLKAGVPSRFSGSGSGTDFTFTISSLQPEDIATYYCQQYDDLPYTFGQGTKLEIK | n
* H4H12168P (antibody, human IgG4, V domains shown, Human IgG4 Fc with S108P hinge mutation (H4H)) VH: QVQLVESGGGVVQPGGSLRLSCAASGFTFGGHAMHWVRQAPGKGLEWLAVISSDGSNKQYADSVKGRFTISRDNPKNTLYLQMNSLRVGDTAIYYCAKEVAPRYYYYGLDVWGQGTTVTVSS VL: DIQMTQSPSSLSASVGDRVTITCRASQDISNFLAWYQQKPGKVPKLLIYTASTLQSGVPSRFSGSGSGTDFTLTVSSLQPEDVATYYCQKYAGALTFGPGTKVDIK | n
* H4H12161P (antibody, human IgG4, V domains shown, Human IgG4 Fc with S108P hinge mutation (H4H)) VH: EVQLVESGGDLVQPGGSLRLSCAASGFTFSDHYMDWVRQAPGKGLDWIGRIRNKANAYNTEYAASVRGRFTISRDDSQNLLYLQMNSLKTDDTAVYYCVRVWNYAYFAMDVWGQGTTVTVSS VL: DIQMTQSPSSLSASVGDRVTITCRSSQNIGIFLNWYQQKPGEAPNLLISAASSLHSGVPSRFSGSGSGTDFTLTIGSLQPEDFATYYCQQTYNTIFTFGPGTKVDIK | n
* H4H12170P (antibody, human IgG4, V domains shown, Human IgG4 Fc with S108P hinge mutation (H4H)) VH: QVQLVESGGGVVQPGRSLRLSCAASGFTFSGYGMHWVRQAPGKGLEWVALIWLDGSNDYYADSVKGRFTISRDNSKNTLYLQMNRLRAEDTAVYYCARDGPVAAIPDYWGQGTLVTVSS VL: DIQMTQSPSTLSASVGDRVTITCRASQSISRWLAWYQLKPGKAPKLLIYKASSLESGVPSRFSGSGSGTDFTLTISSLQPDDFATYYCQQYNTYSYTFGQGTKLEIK | y
* H4H11683N (antibody, V domains shown, also called H2M11683N) VH: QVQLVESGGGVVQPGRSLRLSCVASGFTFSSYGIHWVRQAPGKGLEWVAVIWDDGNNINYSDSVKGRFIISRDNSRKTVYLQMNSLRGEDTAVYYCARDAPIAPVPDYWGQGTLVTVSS VL: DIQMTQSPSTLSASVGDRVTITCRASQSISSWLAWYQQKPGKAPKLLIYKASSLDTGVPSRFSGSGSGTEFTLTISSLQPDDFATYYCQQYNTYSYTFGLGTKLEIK | n
* H4H12175P (antibody, human IgG4, V domains shown, Human IgG4 Fc with S108P hinge mutation (H4H)) VH: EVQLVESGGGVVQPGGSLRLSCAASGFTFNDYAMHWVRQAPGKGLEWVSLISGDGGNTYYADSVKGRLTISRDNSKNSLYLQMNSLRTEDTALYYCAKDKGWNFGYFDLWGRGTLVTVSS VL: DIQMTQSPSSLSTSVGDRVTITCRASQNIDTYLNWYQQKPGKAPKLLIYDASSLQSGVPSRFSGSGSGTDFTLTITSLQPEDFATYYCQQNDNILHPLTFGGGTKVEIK | n
* H4H12169P (antibody, human IgG4, V domains shown, Human IgG4 Fc with S108P hinge mutation (H4H)) VH: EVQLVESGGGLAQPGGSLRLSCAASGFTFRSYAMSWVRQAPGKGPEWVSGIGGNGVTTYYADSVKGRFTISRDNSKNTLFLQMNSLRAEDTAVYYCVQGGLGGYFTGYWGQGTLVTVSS VL: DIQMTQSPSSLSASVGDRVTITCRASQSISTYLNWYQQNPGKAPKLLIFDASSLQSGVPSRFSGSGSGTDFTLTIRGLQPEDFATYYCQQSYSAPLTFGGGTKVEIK | y
